tested on: T1, SARS-CoV-2 BA.2 spike trimer variant (SARS-CoV-2 Omicron BA.2, UniProt P0DTC2 16-1213)
T1 construct: also called Omicron BA.2
assay overview: Table A: binding pattern against variant spike proteins
value kind: binding result

3-K11-A (antibody, V domains shown) VH: EVQLQQSGPELVKPGASVKMSCKASGYTFTSYVMHWVKQKPGQGLEWIGYINPYNDGTEYNEKFKGKATLTSDKSSSTAYMELSSLTSEDSAVYHCAREAYRYFDVWGTGTTVTVSS VL: DIQMTQSPASLSVSVGETVTITCRASENIYSNLAWYQQKQGKYPQLLVYGATNLADGVPSRFSGSGSGTQYFLKINSLQSEDFGSYYCQHFWGIPWTFGGGTKLEIK    no binding
3-P17-A (antibody, V domains shown) VH: QVQLKQSGPGLVQPSQSLSITCTVSGFSLTSYGVHWVRQSPGKGLEWLGVIWSGGITDYNAGFISRLSISKDNSKSQVFFTMNSLQADDTAIYYCARIITTVLDQFADWGQGTLVTVSA VL: DIVLTQSPASLAVSLGQRATISCRASQSVSTSTYSYIHWYQQKPGQPPKLLIKYASNLESGVPARFSGSGSGTDFTLNIHPVEEEDTATYYCQHSWEIPPTFGAGTKLELK    no binding
9-G24-A (antibody, V domains shown) VH: QVQLQQSGAELVRPGASVKLSCKASGYTFTDYEMHWVKQTPVHGLEWIGVIDPETGDTAYNQKFKDKATLTADKSSSTAYMELRSLTSEDSAVYYCARRRDYGNPYWYFDVWGAGTAVTVSS VL: EIVLTQSPALMAASPGEKVTITCSASSSISSSNLHWYQQKSGTSPKPWIYGTSNLASGVPVRFSGSGSGTSYSLTISSMEAEDAATYVCQQWSNYPYTFGSGTKLEIK    no binding
